# credit: PubChem BioAssay (NCI)

# Test system: BT-549 breast
# assay explanation: NCI-60 one-dose screen, 48 h
# applied conditions: 10 µM unless noted
About 83,000 compounds went through this panel and 20% of them were active in at least one assay; those are over-represented in the sample as a whole. The source made the active and inactive calls. Rule for the calls: active = growth percent below 10; inactive = the rest.
Pick from 1 (active), -1 (inactive) when you respond.

A selection of reference data follows.
• N#Cc1c(-c2ccc(Cl)cc2)nc2c(c(-c3ccccc3)nn2-c2ccccc2)c1-c1ccc(O)cc1 = -1
• COc1cc(C2CC(c3cccc(Br)c3)=NN2C(C)=O)cc(OC)c1OC (stereo not given) = 1
• CNC(=O)c1[nH]cc(-c2ccccc2)c1-c1cc(OC)c2c(c1OC)OCO2 = -1
• COc1ccc2c(c1)c(-c1ccc(-c3cn(C)c4ccc(OC)cc34)o1)cn2C = 1
• CCN(CC)S(=O)(=O)c1ccc(NC(=O)CSc2nnc(C)n2-c2ccccc2)cc1 = -1

Status in this test for O=C1CCC(C(=O)NCCNCCNC(=O)C2CCC(=O)N2)N1 (stereo not given) ?
-1
